System: HT29 cells
assay procedure: MTT cell proliferation assay, HT29
Type: cell-based, human
reported conditions: Homo sapiens, HT-29; 72 h treatment, MTT

given smiles	limit sign	IC50 (µM)
CC1=NN(c2ccc(C(=O)O)cc2)C(=O)/C1=C\c1ccc[nH]1	>	100
O=C(O)c1ccc(N2N=C(c3ccccc3)/C(=C/c3ccc[nH]3)C2=O)cc1	=	54

###

measured target: KAT8 (Homo sapiens)
Construct: using the previously purified KAT8 (173–458, 5 nM); 6xHis tag with TEV protease cleavage site (N, cleaved yes); made in house; host or cells: E. coli BL21(DE3)
assay procedure: Radioactive KAT8 inhibition assay
Type: biochemical
pIC50: −log10 of the molar value.
Here, each record is paired with measured pIC50 data.

compound	limit sign	pIC50
CC1=NN(c2ccc(C(=O)O)cc2)C(=O)C1=Cc1ccco1 (mixture of isomers) [Compound 20]	=	4.77
COc1ccccc1C(=O)c1c[nH]c(/C=C2\C(=O)N(c3ccc(C(=O)O)cc3)N=C2C)c1 [Compound 10]	<	3.82
CC(C)C1=NN(c2ccc(C(=O)O)cc2)C(=O)/C1=C\c1cc(C(=O)c2ccccc2[N+](=O)[O-])c[nH]1 [Compound 15]	<	3.82
O=C(O)c1ccc(N2N=C(Cc3ccccc3)/C(=C/c3ccc[nH]3)C2=O)cc1 [Compound 35]	=	4.42

###

measured target: KAT2A (Homo sapiens)
Sequence (Q92830 323-837): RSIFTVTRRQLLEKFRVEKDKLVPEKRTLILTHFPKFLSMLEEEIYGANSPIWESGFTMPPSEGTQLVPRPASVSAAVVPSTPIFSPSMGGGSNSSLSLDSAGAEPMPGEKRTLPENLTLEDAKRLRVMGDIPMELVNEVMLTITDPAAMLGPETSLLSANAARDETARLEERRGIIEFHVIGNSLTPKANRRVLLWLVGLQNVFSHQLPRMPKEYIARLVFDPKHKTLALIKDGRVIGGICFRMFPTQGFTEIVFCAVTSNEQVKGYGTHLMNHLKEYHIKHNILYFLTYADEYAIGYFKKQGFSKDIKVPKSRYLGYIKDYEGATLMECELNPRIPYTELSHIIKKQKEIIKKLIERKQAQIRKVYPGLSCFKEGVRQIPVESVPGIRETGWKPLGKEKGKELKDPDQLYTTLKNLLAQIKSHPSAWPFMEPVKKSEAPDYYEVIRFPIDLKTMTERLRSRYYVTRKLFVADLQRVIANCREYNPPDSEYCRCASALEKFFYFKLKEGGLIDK
recorded metric: IC50

compound	recorded metric	result
CCCCCCCCCCCCCCCc1cccc(O)c1C(=O)O [I (AA), anacardic acid, reference compound]	IC50	42.1 µM

###

measured target: KAT8 (Homo sapiens, UniProt Q9H7Z6)
Construct: using the previously purified KAT8 (173–458, 5 nM); 6xHis tag with TEV protease cleavage site (N, cleaved yes)
Sequence (Q9H7Z6 173-458): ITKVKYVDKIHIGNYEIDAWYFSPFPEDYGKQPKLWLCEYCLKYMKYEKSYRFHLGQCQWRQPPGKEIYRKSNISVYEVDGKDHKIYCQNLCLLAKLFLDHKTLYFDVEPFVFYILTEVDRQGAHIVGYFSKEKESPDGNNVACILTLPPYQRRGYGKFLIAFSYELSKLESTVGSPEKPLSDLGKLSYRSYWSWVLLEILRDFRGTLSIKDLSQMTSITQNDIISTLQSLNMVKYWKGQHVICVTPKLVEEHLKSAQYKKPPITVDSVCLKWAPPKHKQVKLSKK
assay procedure: SPR-based KAT8 binding assay
reported conditions: immobilized KAT8, 25 °C, read-out: equilibrium dissociation constant (KD)
pKd: −log10 of the molar value.
recorded metric: pKd

compound	recorded metric	quantitative result
O=C(O)c1ccc(N2N=C(c3ccccc3)/C(=C/c3ccc[nH]3)C2=O)cc1 [Compound 34]	pKd	5.69
CC1=NN(c2ccc(C(=O)O)cc2)C(=O)/C1=C\c1ccc[nH]1 [Compound 19]	pKd	5.31

###

Here, each record is paired with measured IC50 data.
measured target: KAT8 (Homo sapiens, UniProt Q9H7Z6)
Construct: using the previously purified KAT8 (173–458, 5 nM); 6xHis tag with TEV protease cleavage site (N, cleaved yes); made in house; host or cells: E. coli BL21(DE3)
assay procedure: Radioactive KAT8 inhibition assay
Format: biochemical
reported conditions: read-out: IC50 KAT8 (5 nM); enzyme 5 nM; 2-fold serial dilution from 200 μM; NI = no inhibition at 200 μM; mean ± SD of three independent experiments

compound	IC50
CC1=NN(c2ccc(C(=O)O)cc2)C(=O)/C1=C\c1cc(C(=O)c2ccccc2F)c[nH]1 [Compound 8]	> 150 µM
CC1=NN(c2ccc(C(=O)O)cc2)C(=O)/C1=C\c1ccn[nH]1 [Compound 24]	44.1 µM
CC1=NN(c2ccc(C(=O)O)cc2)C(=O)/C1=C\c1cc(C(=O)c2ccccc2C)c[nH]1 [Compound 13]	95 µM
CC1=NN(c2ccc(C(=O)O)cc2)C(=O)/C1=C\c1cccn1C [Compound 28]	15.1 µM
CC1=NN(c2ccc(C(=O)NCCCN3CCCC3)cc2)C(=O)/C1=C\c1ccc[nH]1 [Compound 41]	> 200 µM
CC1=NN(c2ccc(C(=O)O)cc2)C(=O)/C1=C\c1ccc[nH]1 [Compound 19]	12.1 µM
Cc1nn(-c2ccc(C(=O)O)cc2)c(O)c1Cc1ccc[nH]1 [Compound 31]	17.2 µM
CC1=NN(c2ccc(C(=O)O)cc2)C(=O)/C1=C\c1cc(C(=O)c2cccc(F)c2)c[nH]1 [Compound 9]	> 200 µM
